- study.target: GnRHR (Hek 293 cells with the GnRHR gene) (Homo sapiens, UniProt P30968)
- Sequence (P30968 1-328): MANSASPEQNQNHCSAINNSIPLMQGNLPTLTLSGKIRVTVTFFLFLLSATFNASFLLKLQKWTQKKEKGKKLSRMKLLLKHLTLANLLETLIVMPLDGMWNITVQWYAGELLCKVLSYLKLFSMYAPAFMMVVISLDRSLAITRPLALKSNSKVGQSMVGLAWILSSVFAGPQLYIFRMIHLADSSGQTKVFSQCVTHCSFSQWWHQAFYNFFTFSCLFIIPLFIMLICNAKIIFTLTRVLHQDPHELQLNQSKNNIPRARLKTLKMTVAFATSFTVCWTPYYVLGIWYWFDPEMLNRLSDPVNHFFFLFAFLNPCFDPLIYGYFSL
- assay.details: LUCIFERASE Assay for GnRH (hCG promoter luciferase reporter)
- applied.conditions: antagonist format, against 0.6 nM Histrelin
Give measured IC50 for each item. Keep answers brief.
Give bare numbers, in µM.

# smi, IC50 / µM
data = [
    ("CCOC(=O)c1cn(Cc2c(F)cccc2F)c2cc(-c3ccsc3)c(CN(C)Cc3ccccc3)cc2c1=O", 10),
]

Kindly review the next compound as well.
Req: # get_value(readout='IC50', item= CCOC(=O)c1cn(Cc2c(F)cccc2F)c2cc(-c3cc4ccccc4o3)c(CN(C)Cc3ccccc3)cc2c1=O )
Resp: 3.26

Value source: patent US6765011B2
